Listed here: items and their measured melting point.

# compound, melting point
rows = [
    ("O=[N+]([O-])c1c(Nc2ccc3[nH]ccc3c2)ncnc1-c1ccc(C(F)(F)F)cc1F", "147 to 149 °C"),
]

// query melting point value for entry `Cc1ccc(C)n1-c1cc(F)cc(F)c1`
55 to 56 °C

Next entry: `Cc1cc(SCc2sc(-c3ccc(C(F)(F)F)c(F)c3)nc2C)ccc1OCC(=O)O`
< 50 °C

For `CN(C(=O)C(F)(F)F)c1cnn(-c2cccc(C(F)(F)F)c2)c(=O)c1-c1cccc(C(F)(F)F)c1` then?
122 °C

Do the same for `COC(=O)CSc1nc(Oc2ccc(N3CCNCC3)cc2)ncc1[N+](=O)[O-]` please
193 to 195 °C

Check `CCc1[nH]c(=O)[nH]c1C(=O)c1cccnc1` too.
219 to 221 °C
